subject_of_test: Porcine ventricle myofibrils (ventricular myosin ATPase) (Sus scrofa, UniProt P79293)
Construct: Myofibrils from porcine cardiac muscle was isolated from the left ventricle of Yucatan minipigs; tissue Exemplar Genetics; host or cells: left ventricle of Yucatan minipigs, myofibrils prepared in house
Sequence (P79293 whole entry): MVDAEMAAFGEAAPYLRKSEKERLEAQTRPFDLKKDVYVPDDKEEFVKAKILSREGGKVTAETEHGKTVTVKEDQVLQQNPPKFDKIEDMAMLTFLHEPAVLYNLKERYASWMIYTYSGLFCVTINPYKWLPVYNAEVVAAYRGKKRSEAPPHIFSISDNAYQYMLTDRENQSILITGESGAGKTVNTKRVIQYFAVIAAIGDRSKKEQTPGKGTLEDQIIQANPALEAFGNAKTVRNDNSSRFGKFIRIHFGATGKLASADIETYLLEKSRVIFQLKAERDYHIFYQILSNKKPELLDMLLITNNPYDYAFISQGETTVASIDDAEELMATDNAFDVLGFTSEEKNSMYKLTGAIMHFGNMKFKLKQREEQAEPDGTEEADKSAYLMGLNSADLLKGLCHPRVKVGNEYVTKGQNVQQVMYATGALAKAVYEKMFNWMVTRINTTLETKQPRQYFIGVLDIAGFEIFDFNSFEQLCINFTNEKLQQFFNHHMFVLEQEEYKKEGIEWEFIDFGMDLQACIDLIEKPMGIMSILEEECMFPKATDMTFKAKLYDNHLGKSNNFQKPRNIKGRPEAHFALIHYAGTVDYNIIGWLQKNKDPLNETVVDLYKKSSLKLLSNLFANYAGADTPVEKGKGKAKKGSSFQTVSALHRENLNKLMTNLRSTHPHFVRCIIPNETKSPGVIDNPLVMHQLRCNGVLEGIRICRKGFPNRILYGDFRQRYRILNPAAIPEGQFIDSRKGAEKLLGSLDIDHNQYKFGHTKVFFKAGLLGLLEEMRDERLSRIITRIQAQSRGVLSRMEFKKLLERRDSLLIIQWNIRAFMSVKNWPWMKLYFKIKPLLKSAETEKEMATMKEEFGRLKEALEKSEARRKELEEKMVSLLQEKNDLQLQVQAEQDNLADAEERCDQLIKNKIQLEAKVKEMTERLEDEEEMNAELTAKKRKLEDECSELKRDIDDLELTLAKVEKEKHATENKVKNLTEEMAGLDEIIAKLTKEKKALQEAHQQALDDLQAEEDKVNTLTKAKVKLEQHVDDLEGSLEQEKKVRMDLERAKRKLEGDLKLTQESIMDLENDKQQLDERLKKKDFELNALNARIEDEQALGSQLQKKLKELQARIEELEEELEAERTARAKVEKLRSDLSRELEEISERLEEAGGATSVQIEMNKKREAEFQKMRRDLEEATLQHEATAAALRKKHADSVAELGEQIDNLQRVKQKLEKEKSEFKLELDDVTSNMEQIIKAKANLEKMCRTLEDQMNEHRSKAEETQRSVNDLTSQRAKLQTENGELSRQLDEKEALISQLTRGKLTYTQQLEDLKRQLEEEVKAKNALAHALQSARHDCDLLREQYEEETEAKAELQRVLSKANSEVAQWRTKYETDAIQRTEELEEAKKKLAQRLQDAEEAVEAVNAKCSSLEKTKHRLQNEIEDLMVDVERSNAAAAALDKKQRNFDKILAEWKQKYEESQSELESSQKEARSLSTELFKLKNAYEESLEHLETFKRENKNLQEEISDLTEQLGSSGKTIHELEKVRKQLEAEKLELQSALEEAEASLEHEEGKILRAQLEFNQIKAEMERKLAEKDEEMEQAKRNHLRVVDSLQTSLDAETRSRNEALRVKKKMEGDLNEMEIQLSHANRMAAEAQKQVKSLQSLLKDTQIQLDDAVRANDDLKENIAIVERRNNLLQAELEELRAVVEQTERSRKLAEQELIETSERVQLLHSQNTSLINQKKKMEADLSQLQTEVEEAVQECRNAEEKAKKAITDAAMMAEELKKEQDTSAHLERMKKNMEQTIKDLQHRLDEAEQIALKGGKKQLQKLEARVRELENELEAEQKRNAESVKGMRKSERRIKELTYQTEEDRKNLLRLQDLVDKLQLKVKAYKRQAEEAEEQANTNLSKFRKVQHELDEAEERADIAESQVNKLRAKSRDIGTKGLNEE
assay: Myofibril ATPase assay, porcine ventricle myofibrils
Assay type: biochemical, porcine (Yucatan minipigs)
condition_label: porcine ventricle myofibrils; Y75 value
Kindly apply the following: Condition met if Ventricular EC25 is less than 10 µM, Condition not met in every other case.

As a guide, the following entries are already answered.
# molecule, subject_of_test, answer_label
measured = [
    ("Cc1c(CC(=O)N[C@H](C)c2ccc(S(C)(=O)=O)cc2F)c(=O)[nH]c2ccnc(C#N)c12 (single isomer, unassigned)", "Porcine ventricle myofibrils (ventricular myosin ATPase) (Sus scrofa, UniProt P79293)", "Condition not met"),
    ("Cc1c(CC(=O)N[C@H](CO)c2ccc(F)cc2F)c(=O)[nH]c2ccc(C#N)nc12", "Porcine ventricle myofibrils (ventricular myosin ATPase) (Sus scrofa, UniProt P79293)", "Condition not met"),
]

-- ask Please check: Ventricular EC25 for Cc1c(C(C)C(=O)N[C@@H](C)c2ccc(F)cc2F)c(=O)[nH]c2ccncc12 (some centres unmarked) , strictly under 10 µM or not?
-- reply Condition not met

-- ask What do we get for Cc1c(CC(=O)N[C@H](C)c2ccc(F)cc2F)c(=O)[nH]c2ccnc(C#N)c12 ?
-- reply Condition not met

-- ask Next entry: Cc1c(CC(=O)N[C@@H](C)c2ccc(F)cc2F)c(=O)[nH]c2ccnc(N)c12
-- reply Condition not met

-- ask Then C[C@H](NC(=O)Cc1cc2c(Cl)nccc2[nH]c1=O)c1ccc(F)cc1F ?
-- reply Condition met

-- ask Another molecule: Cc1c(CC(=O)N[C@H](C)c2ncc(C#N)cc2F)c(=O)[nH]c2ccnc(C(F)(F)F)c12 (single isomer, unassigned)
-- reply Condition not met

-- ask For Cc1c(CC(=O)N[C@@H](C)c2ccc(F)cc2F)c(=O)[nH]c2ccnc(OCC(C)C)c12 then?
-- reply Condition not met

-- ask Also, Cc1ccccc1[C@H](C)NC(=O)Cc1c(C)c2c(C)nccc2[nH]c1=O (single isomer, unassigned) please.
-- reply Condition met

-- ask Another molecule to look at: C[C@H](NC(=O)Cc1c(C(F)(F)F)c2ncccc2[nH]c1=O)c1ccc(F)cc1F
-- reply Condition met

-- ask Try the molecule Cc1c(CC(=O)N[C@H](CO)c2ccc(C#N)cc2F)c(=O)[nH]c2ccnc(C(F)(F)F)c12 (single isomer, unassigned)
-- reply Condition not met

-- ask Also Cc1c(CC(=O)N[C@@H](CO)c2ncc(C#N)cc2F)c(=O)[nH]c2ccnc(C#N)c12 (single isomer, unassigned) , if possible.
-- reply Condition met

-- ask Next entry: Cc1c(CC(=O)N[C@@H](CO)c2ccc(F)cc2F)c(=O)[nH]c2ccnc(C#N)c12
-- reply Condition met

-- ask Let us now turn to Cc1c(CC(=O)N[C@@H](C)c2ccc(C#N)cc2F)c(=O)[nH]c2cnnc(C#N)c12
-- reply Condition met

----------
subject_of_test: Porcine ventricle myofibrils (ventricular myosin ATPase) (Sus scrofa, UniProt P79293)
Construct: Myofibrils from porcine cardiac muscle was isolated from the left ventricle of Yucatan minipigs; tissue Exemplar Genetics; host or cells: left ventricle of Yucatan minipigs, myofibrils prepared in house
assay: Myofibril ATPase assay, porcine ventricle myofibrils
Assay type: biochemical, porcine (Yucatan minipigs)
condition_label: Y75 value (no ‡ mark); porcine ventricle myofibrils
test_readout: Ventricular EC25 (µM)
Answers are plain numbers, in µM.

As a guide, the following entries are already answered.
# compound, Ventricular EC25, µM
rows = [
    ("C[C@@H](NC(=O)C1(c2cc3c(F)c(F)ccc3[nH]c2=O)CC1)c1cc(C#N)ccn1 (single isomer, unassigned) [compound 2583]", 100.00),
    ("C[C@H](NC(=O)Cc1c(C2CC2)c2cc(C#N)ccc2[nH]c1=O)c1ncc(C#N)cc1F [compound 1152]", 7.78),
]

Parameter requested: Ventricular EC25. Apply to each item below.
1. Cc1c(CC(=O)N[C@H](C)c2ncc(C#N)cn2)c(=O)[nH]c2ccc(F)cc12 [compound 1070]
2. N#Cc1cnc2c(c1)COC[C@@H]2NC(=O)Cc1cc2cc(F)c(F)cc2[nH]c1=O [compound 1055]
3. Cc1cc(C#N)nnc1[C@@H](C)NC(=O)Cc1c(C)c2cc(F)ccc2[nH]c1=O [compound 1058]
4. N#Cc1cnc2c(c1)CC[C@@H]2NC(=O)Cc1cc2c(F)c(F)ccc2[nH]c1=O (single isomer, unassigned) [compound 8]
5. Cc1cc([C@H](C)NC(=O)Cc2c(C)c3cc(F)ccc3[nH]c2=O)ncc1F [compound 1061]

-- reply
1. 1.72
2. 100.00
3. 6.86
4. 100.00
5. 100.00

----------
Can you tell me Atrial EC25 for the items I'm about to list?
System: Porcine atria myofibrils (atrial myosin ATPase)
assay: Myofibril ATPase assay, porcine atria myofibrils
Format: biochemical
condition_label: Y75 value (no ‡ mark); porcine atria myofibrils
Answers are plain numbers, in nM.

# compound, unit_of_measurement, Atrial EC25
measured = [
    ("Cc1nc(C#N)ccc1[C@@H](C)NC(=O)Cc1c(C)c2cc(F)ccc2[nH]c1=O [compound 1050]", "nM", 220),
    ("Cc1c(F)ccc2[nH]c(=O)c(CC(=O)N[C@@H](C)c3ncc(C#N)cc3F)c(C#N)c12 [compound 1150]", "nM", 50),
    ("C[C@@H](NC(=O)Cc1cc2c(F)c(F)ccc2[nH]c1=O)c1ncc(C#N)cc1F [compound 35]", "nM", 80),
    ("N#Cc1cc(F)c2c(c1)OC[C@@H]2NC(=O)C1(c2cc3c(F)c(F)ccc3[nH]c2=O)CC1 (single isomer, unassigned) [compound 4822]", "nM", 160),
    ("Cc1nc(C#N)ncc1[C@H](C)NC(=O)Cc1cc2cc(F)c(F)cc2[nH]c1=O [compound 1097]", "nM", 1110),
]

Hi there! I need Atrial EC25 for each item below, if you can.
1. Cc1c(C(F)(F)C(=O)N[C@@H](C)c2cnc(C#N)cn2)c(=O)[nH]c2ccc(F)cc12 (single isomer, unassigned) [compound 2564]
2. Cc1c(CC(=O)N[C@@H](C)c2ncc(C#N)cc2F)c(=O)[nH]c2ccc(F)c(C#N)c12 [compound 32]

-- reply
1: 510; 2: 50

----------
So I've got a bunch of compounds here, and I need their Ventricular EC25 values.
subject_of_test: Porcine ventricle myofibrils (ventricular myosin ATPase) (Sus scrofa)
Construct: Myofibrils from porcine cardiac muscle was isolated from the left ventricle of Yucatan minipigs; tissue Exemplar Genetics; host or cells: left ventricle of Yucatan minipigs, myofibrils prepared in house
assay: Myofibril ATPase assay, porcine ventricle myofibrils
Type: biochemical, porcine (Yucatan minipigs)
condition_label: Y75 value (no ‡ mark); porcine ventricle myofibrils
# output: number + unit

# compound, Ventricular EC25
data = [
    ("Cc1c(CC(=O)N[C@@H](C)c2ncc(C#N)cc2F)c(=O)[nH]c2cc(F)ccc12 [compound 1079]", "3.04 µM"),
    ("Cc1c(CC(=O)N[C@H](C)c2ncc(C#N)cn2)c(=O)[nH]c2ccc(C#N)cc12 (single isomer, unassigned) [compound 2027]", "100.00 µM"),
    ("Cc1cccc2[nH]c(=O)c(CC(=O)N[C@@H](C)c3ccc(C#N)cn3)c(C#N)c12 [compound 1111]", "2.28 µM"),
    ("Cc1c(C(F)(F)C(=O)N[C@H](C)c2ncc(C#N)cc2F)c(=O)[nH]c2cccc(F)c12 (single isomer, unassigned) [compound 2538]", "0.18 µM"),
    ("CC(C(=O)N[C@@H](C)c1ccc(F)cc1F)c1c(C(F)(F)F)c2cc(F)ccc2[nH]c1=O (stereo partly shown) [compound 113]", "1.61 µM"),
]

For each of the items listed, what is its Ventricular EC25?
1. Cc1c(CC(=O)N[C@@H](C)c2ncc(C#N)cc2F)c(=O)[nH]c2cc(F)c(F)cc12 [compound 1105]
2. Cc1c(CC(=O)N[C@H](C)c2cnc(C#N)nc2)c(=O)[nH]c2ccc(F)cc12 [compound 1100]

-- reply
4.47 µM
2.27 µM

----------
System: Porcine atria myofibrils (atrial myosin ATPase)
assay: Myofibril ATPase assay, porcine atria myofibrils
Type: biochemical
condition_label: porcine atria myofibrils; Y75 value (75% activity relative to no compound)
Criterion: Atrial EC25 meeting or surpassing 2 µM. Met: Criterion met. Not met: Criterion not met.

Example cases with answers are listed next.
# compound, answer_label
measured = [
    ("Cc1nccc2[nH]c(=O)c(CC(=O)N[C@H](CO)c3ccc(F)cc3F)c(C)c12", "Criterion met"),
    ("Cc1c(CC(=O)N[C@@H](C)c2ccc(C#N)cc2F)c(=O)[nH]c2ccnc(C#N)c12 (single isomer, unassigned)", "Criterion not met"),
    ("Cc1c([C@@H](C)C(=O)N[C@@H](C)c2ccc(C#N)cc2F)c(=O)[nH]c2ccnc(C#N)c12 (single isomer, unassigned)", "Criterion not met"),
    ("Cc1c(CC(=O)N[C@@H](CO)c2ccc(F)cc2F)c(=O)[nH]c2ccnc(C#N)c12", "Criterion not met"),
    ("Cc1c(CC(=O)N[C@H](CO)c2ncc(F)cc2F)c(=O)[nH]c2ccnc(C#N)c12", "Criterion met"),
    ("C#Cc1nccc2[nH]c(=O)c(CC(=O)N[C@@H](C)c3cnc(N=[N+]=[N-])cc3C)c(C)c12", "Criterion met"),
]

-- ask Check if Atrial EC25 >= 2 µM (inclusive). Item: Cc1c(CC(=O)N[C@@H](C)c2ccc(F)cc2F)c(=O)[nH]c2ccnc(C(F)(F)F)c12
-- reply Criterion not met

-- ask Next up: Cc1nccc2[nH]c(=O)c(CC(=O)NC(CO)c3ncccc3F)c(C)c12 (centres unmarked)
-- reply Criterion met

-- ask Now try Cc1nccc2[nH]c(=O)c(C3(C(=O)N[C@@H](C)c4ccc(C#N)cc4F)CC3)c(C)c12 (single isomer, unassigned) .
-- reply Criterion not met

-- ask How about C[C@H](NC(=O)[C@@H](C)c1cc2c(C#N)nccc2[nH]c1=O)c1ccc(F)cc1F (single isomer, unassigned) ?
-- reply Criterion not met

-- ask Also need Cc1nccc2[nH]c(=O)c(CC(=O)N[C@H](C)c3ccc(C#N)cc3F)c(C#N)c12 , thanks.
-- reply Criterion met

-- ask Would you mind doing COC[C@H](NC(=O)Cc1c(C)c2c(C)nccc2[nH]c1=O)c1ccc(C#N)cc1F as well?
-- reply Criterion not met

-- ask Same question, C[C@H](NC(=O)[C@@H](C)c1c(C(F)(F)F)c2cnccc2[nH]c1=O)c1ccc(F)cc1F (single isomer, unassigned) this time
-- reply Criterion met

-- ask How about Cc1nccc2[nH]c(=O)c(CC(=O)N[C@H]3CCc4cc(C#N)cnc43)c(C)c12 (single isomer, unassigned) ?
-- reply Criterion met
